- Experimental target: CDK9/CycT1 (Homo sapiens, UniProt P50750)
- Construct: Recombinant full-length His-tagged human CDK9 and CycT1; His; purchased Invitrogen PV4131; host or cells: insect cells
- Sequence (P50750 whole entry): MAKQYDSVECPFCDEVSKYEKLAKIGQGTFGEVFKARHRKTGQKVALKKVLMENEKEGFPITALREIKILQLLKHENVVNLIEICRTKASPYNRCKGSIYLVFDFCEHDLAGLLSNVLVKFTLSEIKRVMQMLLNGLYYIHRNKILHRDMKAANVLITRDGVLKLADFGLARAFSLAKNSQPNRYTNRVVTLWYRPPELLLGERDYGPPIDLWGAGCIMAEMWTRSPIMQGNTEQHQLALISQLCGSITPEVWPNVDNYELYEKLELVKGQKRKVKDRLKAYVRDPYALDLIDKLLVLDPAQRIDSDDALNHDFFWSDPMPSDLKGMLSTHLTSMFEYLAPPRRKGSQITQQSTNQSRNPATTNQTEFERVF
- Sequence (O60563 whole entry partner): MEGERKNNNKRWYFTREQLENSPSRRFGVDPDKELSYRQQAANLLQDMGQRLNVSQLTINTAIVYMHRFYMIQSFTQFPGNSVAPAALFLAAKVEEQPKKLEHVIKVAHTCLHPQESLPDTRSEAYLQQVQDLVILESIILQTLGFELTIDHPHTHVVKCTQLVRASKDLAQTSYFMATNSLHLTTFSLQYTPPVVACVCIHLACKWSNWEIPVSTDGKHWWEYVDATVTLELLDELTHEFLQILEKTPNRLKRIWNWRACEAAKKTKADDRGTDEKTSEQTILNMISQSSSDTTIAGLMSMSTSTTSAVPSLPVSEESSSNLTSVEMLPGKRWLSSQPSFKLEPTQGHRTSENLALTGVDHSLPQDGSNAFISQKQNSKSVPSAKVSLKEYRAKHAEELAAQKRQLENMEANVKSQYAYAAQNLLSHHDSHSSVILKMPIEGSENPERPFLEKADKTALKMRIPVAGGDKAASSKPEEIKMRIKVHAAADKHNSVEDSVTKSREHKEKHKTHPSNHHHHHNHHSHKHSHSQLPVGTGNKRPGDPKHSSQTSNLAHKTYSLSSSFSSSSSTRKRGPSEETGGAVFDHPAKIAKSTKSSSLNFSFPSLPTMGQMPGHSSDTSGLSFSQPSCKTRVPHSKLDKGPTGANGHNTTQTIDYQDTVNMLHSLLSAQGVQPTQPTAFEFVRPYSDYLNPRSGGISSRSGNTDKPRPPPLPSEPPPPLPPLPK
- Test details: CDK9/CycT1 kinase assay (TR-FRET, Method 1a)
- Format: biochemical
- Particulars: Method 1a, 10 μM ATP
Measure name: IC50 (nM)
# output: bare number, implied unit nM

Study these solved cases before continuing.
Molecule	Measure name	Reading
CS(=N)(=O)Cc1cc2nc(c1)OCCCCOc1cc(F)ccc1-c1cc(ncc1F)N2 (racemic)	IC50	4.8
CS(=N)(=O)Cc1cc2nc(c1)OCCCOc1cc(F)ccc1-c1cc(ncc1F)N2 (racemic) [Example 5]	IC50	3
CS(=N)(=O)Cc1cc2nc(c1)OCCOc1cc(F)ccc1-c1cc(ncc1F)N2 (racemic)	IC50	2.5
CS(=O)(Cc1cc2cc(c1)OCCCOc1cc(F)ccc1-c1nc(ncc1F)N2)=NC(=O)C(F)(F)F (racemic)	IC50	3.9

Request body: readout IC50, system CDK9/CycT1 (Homo sapiens, UniProt P50750), query CS(=O)(Cc1cc2nc(c1)OCCCOc1cc(F)ccc1-c1cc(ncc1F)N2)=NC(=O)OCCN (racemic) . Return the value. 4.3

---

// reported efflux ratio at 2 h, 2 μM per item
- Test details: Caco-2 permeation assay
- Assay type: in vitro ADME
- Particulars: human, pH 7.2; Caco-2 monolayer, 2 μM test compound; read-out: Efflux ratio (Papp B-A/Papp A-B)
Lab note: jot down the number only; don't add units.

For orientation, consider the following solved cases.
Compound	Measure name	Reading
CS(=N)(=O)Cc1cc2nc(c1)OCCCOc1cc(F)ccc1-c1cc(ncc1F)N2 (racemic) [Example 5]	efflux ratio at 2 h, 2 μM	0.91
CCNC(=O)N=S(C)(=O)Cc1cc2nc(c1)OCCCOc1cc(F)ccc1-c1cc(ncc1F)N2 (racemic) [Example 17]	efflux ratio at 2 h, 2 μM	1

Lab note: next compound to report on.
Requested field: efflux ratio at 2 h, 2 μM. Item: NCCS(=O)(=O)Cc1cc2nc(c1)OCCCOc1cc(F)ccc1-c1cc(ncc1F)N2 [Example 26] 6.5

---

Quick reference: pIC50 of the listed items.
- System: HeLa cells
- Test details: Proliferation assay HeLa
- Type: cell-based, human
- Particulars: Homo sapiens, HeLa, 96 h, 4 days, crystal violet; read-out: Inhibition of HeLa cell proliferation IC50
The quantity pIC50 is defined as the negative base-10 logarithm of the molar concentration.

The following compounds have reported results that may help.
Compound	pIC50
CSCc1cc2nc(c1)OCCCOc1cc(F)ccc1-c1cc(ncc1F)N2	7.07
CS(=N)(=O)Cc1cc2cc(c1)OCCCCOc1cc(F)ccc1-c1nc(ncc1F)N2 (racemic)	8.10

# context switch: different compound, same pIC50
Can you share its pIC50? I mean this compound: CSCc1cc2nc(c1)OCCCCOc1cc(F)ccc1-c1cc(ncc1F)N2 6.55

---

As shown below, each of these compounds has a reported IC50 value.
- Experimental target: CDK9/CycT1 (Homo sapiens, UniProt P50750)
- Construct: Recombinant full-length His-tagged human CDK9 and CycT1; His; purchased Invitrogen PV4131; host or cells: insect cells
- Test details: CDK9/CycT1 high ATP kinase assay (TR-FRET, Method 1b)
- Type: biochemical
- Particulars: Method 1b, 2 mM ATP
Use nM as the unit, but write only the number.

// solved cases for IC50 follow
Compound	Experimental target	Unit tag	IC50
CSCc1cc2nc(c1)OCCCOc1cc(F)ccc1-c1cc(ncc1F)N2	CDK9/CycT1 (Homo sapiens, UniProt P50750)	nM	4.6
CCNC(=O)N=S(C)(=O)Cc1cc2nc(c1)OCCCOc1cc(F)ccc1-c1cc(ncc1F)N2 (racemic)	CDK9/CycT1 (Homo sapiens, UniProt P50750)	nM	2.7
CS(=O)(Cc1cc2cc(c1)OCCCOc1cc(F)ccc1-c1nc(ncc1F)N2)=NC(=O)C(F)(F)F (racemic)	CDK9/CycT1 (Homo sapiens, UniProt P50750)	nM	3.9

What measured IC50 goes with CS(=N)(=O)Cc1cc2nc(c1)OCCOc1cc(F)ccc1-c1cc(ncc1F)N2 (racemic) ? 3

Taken from patent US9963464B2.
